Measured SPOT peptide array binding signal intensity, listed per entry.
Target: SpMyo1
Experiment: SPOT peptide array binding signal intensity (averaged, normalized) (arbitrary units (background-subtracted, floor 0; scale differs between SH3 domains)); higher = stronger binding of the SH3 domain to the peptide
OBSERVABLE: SPOT peptide array binding signal intensity

            binder  result
0  PSTMDFPKLPSFQNS    91.5
1  NAGIRPKFILALNDE     ≤ 0
2  SSTPTTPERPKRKSG     ≤ 0
3  RPPRPPPKPLHLRTE     318
4  APPLPPTAPPPPSLP    2050
5  DLFKPLPEPPTELGR     ≤ 0
6  GTIARPLFLVVLFFI    4.25
